# System: Escherichia coli
# EXPERIMENT_SUMMARY: Antimicrobial activity against Escherichia coli JM107 by CLSI method
# Format: functional
# EXPERIMENTAL_CONTEXT: Escherichia coli, JM107
MEASURED_ENDPOINT: MIC50

MOLECULE	ASSAY_VALUE
CC(=O)OCC1=C(C(=O)[O-])N2C(=O)[C@@H](NC(=O)CCC3C(=O)N(c4ccccc4)C3c3ccccc3)[C@H]2SC1.[Na+] (mixture of isomers)	> 256 µg/mL

Value sought for every listed molecule: MIC50.
1. COc1ccc(N2C(=O)C(CC(=O)N[C@@H]3C(=O)N4C(C(=O)[O-])=C(COC(C)=O)CS[C@H]34)C2c2ccc(Cl)cc2)cc1.[Na+] (mixture of isomers)
2. CC(=O)OCC1=C(C(=O)[O-])N2C(=O)[C@@H](NC(=O)CCCCCC3C(=O)N(c4ccccc4)C3c3ccccc3)[C@H]2SC1.[Na+] (mixture of isomers)
3. COc1ccc(N2C(=O)C(CCCCCC(=O)N[C@@H]3C(=O)N4C(C(=O)[O-])=C(COC(C)=O)CS[C@H]34)C2c2ccccc2)cc1.[Na+] (mixture of isomers)
4. CO/N=C(\C(=O)N[C@@H]1C(=O)N2C(C(=O)O)=C(CSc3nc(=O)c(=O)[nH]n3C)CS[C@H]12)c1csc(N)n1.[Na+]
5. COc1ccc(N2C(=O)C(CC(=O)N[C@@H]3C(=O)N4C(C(=O)[O-])=C(COC(C)=O)CS[C@H]34)C2c2ccccc2)cc1.[Na+] (mixture of isomers)

> 256 µg/mL
> 256 µg/mL
> 256 µg/mL
< 0.25 µg/mL
> 256 µg/mL
